Sourced from PubChem BioAssay (EPA / NIEHS)

Read-out: TIMP metallopeptidase inhibitor 2 (TIMP2), TIMP2 (gene 7077)
protocol.summary: BSK_KF3CT_TIMP2: BioMAP Diversity Plus: KF3CT Assay for TIMP metallopeptidase inhibitor 2 (TIMP2) Biomarker Activity (AID 2283071)
conditions: primary human keratinocytes with fibroblasts; actives raise or lower the signal
The source made the active and inactive calls. How the source made its calls: active means hit-call score of the fitted dose curve at least 0.9, where 1 is the maximum; inactive means score below 0.9.
Write down the outcome that applies. Available outcomes: label 1 (active), label 0 (inactive)

> print(dat)
                                   compound  answer.label
1  CCCCOC(=O)C(C)Oc1ccc(Oc2ccc(C(F)(F)F)cn2)cc1 (centres undefined)       label 0
2             S=C([S-])NCCNC(=S)[S-].[Mn+2]       label 0
3  CCOC(=O)C(C)Oc1ccc(Oc2cnc3cc(Cl)ccc3n2)cc1 (centres undefined)       label 0
4                     O=C(c1ccccc1)C1CCCCC1       label 0
5  CCCCC(CC)CN1C(=O)C2C3C=CC(C3)C2C1=O (centres undefined)       label 0

QUERY: Returns: the outcome recorded for C[C@]12C[C@H](O)[C@H]3[C@@H](CCC4=CC(=O)CC[C@@]43C)[C@@H]1CC[C@@H]2C(=O)CO in this assay.
RESULT: label 0

QUERY: Returns: the outcome recorded for COCCO in this assay.
RESULT: label 0

QUERY: Returns: the outcome recorded for COc1nc(C)nc(NC(=O)NS(=O)(=O)c2ccccc2OCCCl)n1 in this assay.
RESULT: label 0

QUERY: Returns: the outcome recorded for CC(C)CCCCCCc1ccc(O)cc1 in this assay.
RESULT: label 1

QUERY: Returns: the outcome recorded for CCCN(CCC)C(=O)SCC in this assay.
RESULT: label 0

QUERY: Returns: the outcome recorded for COC(=O)c1ccccc1S(=O)(=O)NC(=O)Nc1nc(OC(F)F)cc(OC(F)F)n1 in this assay.
RESULT: label 0

QUERY: Returns: the outcome recorded for CCOC(=O)C(C)Oc1ccc(Oc2nc3ccc(Cl)cc3o2)cc1 (centres undefined) in this assay.
RESULT: label 0

QUERY: Returns: the outcome recorded for O=C(c1ccc(O)cc1O)c1ccc(O)cc1O in this assay.
RESULT: label 0

QUERY: Returns: the outcome recorded for C[C@]12CC[C@@H]3c4ccc(O)cc4C[C@@H](CCCCCCCCCS(=O)CCCC(F)(F)C(F)(F)F)[C@H]3[C@@H]1CC[C@@H]2O (some centres undefined) in this assay.
RESULT: label 0
